Measured values drawn from ChEMBL document CHEMBL1201862 for this set.

Recorded measurements of GI50, one per entry
System: SK-MEL-28
Experiment: NCI tumour cell line growth inhibition, 48 h
Calls of active or inactive are those of the source. No stated cut-off is given here; in the data, active = GI50 up to about 1.1 µM and inactive = higher.

Nc1nc(NNc2cccc(F)c2)cc(=O)[nH]1 | > 100 µM (inactive)
CCNc1nc(N)c(C(=O)c2ccc(Cl)cc2)s1 | 76.6 µM (inactive)
CC[C@]1(Cc2ccc(OC)c(OC)c2)C=[N+]([O-])O[C@H](OC2CCCC2(c2ccccc2)c2ccccc2)[C@@H]1OC(C)=O (stereo not given in full) | 1.81 µM (inactive)

Problem: Report the value of GI50 obtained on SK-MEL-28 for `CC(=O)OC(/C=C/c1ccccc1)=C(OC(C)C)/C1=C(\c2ccccc2)SCCCSC1=O` .
Result: > 100 µM (inactive)

Problem: Report the value of GI50 obtained on SK-MEL-28 for `COc1ccc(-c2c(C#N)c(O)n(NS(=O)(=O)c3ccc(C)cc3)c(=O)c2C#N)cc1` .
Result: 82.8 µM (inactive)

* * *

Recorded measurements of GI50, one per entry
System: BT-549
Experiment: NCI tumour cell line growth inhibition, 48 h
The source made the active and inactive calls. Cut-off read from the data, not from the text of the source: active = GI50 up to about 1.1 µM and inactive = higher.

N#CC(=S)Nc1ccc(Cl)c(Cl)c1 | 27 µM (inactive)
O=C(c1nsc(Cl)c1Cl)N1CCCCC1 | > 100 µM (inactive)
CCCCCC(=O)OCC1(CO)C/C(=C/CC(C(C)C)C(C)C)C(=O)O1 (stereo not given) | > 75 µM (inactive)
CCOC(=O)CCC(NC(=O)c1ccc(Nc2nc3ccccc3nc2-c2cccs2)cc1)C(=O)OCC (stereo not given) | 23.6 µM (inactive)
CC(C)(C)c1cc(C(=O)C2Cc3ccccc3C(=O)O2)cc(C(C)(C)C)c1O (stereo not given) | 10.5 µM (inactive)

Problem: Read off the recorded GI50 for COc1ccc(N2C(=O)/C(=C\c3cccc(Oc4ccccc4)c3)SC2c2ccccc2)cc1 (stereo not given)
Result: 25.3 µM (inactive)

Problem: Read off the recorded GI50 for `Cc1cc(NC(=O)NC(=O)c2ccccc2[N+](=O)[O-])ccc1Oc1ncc(Cl)cn1`
Result: 29.4 µM (inactive)

Problem: Read off the recorded GI50 for O=C1C(/C=N/CCc2c[nH]c3ccccc23)C(C(F)(F)F)=NN1c1nc2ccccc2s1 (stereo not given)
Result: 25.3 µM (inactive)

Problem: Read off the recorded GI50 for COC(=O)[C@]1(C)CCCC2(C)C3=C(CCC21)CC1(CC3)SCCS1 (stereo not given in full)
Result: > 10 µM (inactive)

Problem: Read off the recorded GI50 for `NS(=O)(=O)c1ccc(Nc2c3ccccc3nc3c(C(=O)NC(CO)(CO)CO)cccc23)cc1`
Result: 0.126 µM (active)

* * *

Test system: SNB-19
Test: NCI tumour cell line growth inhibition, 48 h
Active and inactive are the calls of the source. No stated cut-off is given here; in the data, active = GI50 up to about 1.1 µM and inactive = higher.
Response enum: active, inactive

Observe how each entry below is paired with its result.
Cc1coc2c1C(=O)C(=O)c1c-2ccc2c1CCCC2(C)C | inactive
CC1=CC(=O)/C(=C/N2CCNC2=S)C(=O)O1 | inactive
CCOC(=O)c1cc(-c2ccc([N+](=O)[O-])cc2)c([N+](=O)[O-])[nH]1 | inactive
N#CCSc1c(-c2ccccc2)c(=O)n(-c2ccccc2)c(=S)n1-c1ccccc1 | inactive
COC(=O)c1[nH]c(=S)[nH]c(=O)c1-c1ccc(Cl)cc1 | inactive

Problem: Hi, sorry to bother you, what did the test record for `Cc1cc2c(cc1C)[n+]([O-])c(C(=O)/C=C/c1ccccc1[N+](=O)[O-])c(C)[n+]2[O-]` ?
Result: inactive

Problem: Hi, sorry to bother you, what did the test record for CC(C)C1=CC23CCC4C(C)(C(=O)O)CCCC4(C)C2CC1C1C(=O)N(c2ccccc2N2C(=O)C4C5CC6C7(C)CCCC(C)(C(=O)O)C7CCC6(C=C5C(C)C)C4C2=O)C(=O)C13 (configuration not stated) ?
Result: inactive

Problem: Hi, sorry to bother you, what did the test record for `C/C=C/COc1cc(NC(=S)OC(C)C)ccc1Cl.C/C=C\COc1cc(NC(=S)OC(C)C)ccc1Cl` ?
Result: inactive

Problem: Hi, sorry to bother you, what did the test record for `Cc1ccc(C(=O)NN=C(/N=N/c2cccc(C)c2)c2ccc(N(C)C)cc2)cc1` ?
Result: inactive

Problem: Hi, sorry to bother you, what did the test record for `C/C(=N/S(=O)(=O)c1ccc(Cl)c(Cl)c1)OCC(C)(C)C` ?
Result: inactive

Problem: Hi, sorry to bother you, what did the test record for `C[N+](C)(C)CC(=O)N/N=C/c1oc(-c2c(O)ccc3ccccc23)c(-c2c(O)ccc3ccccc23)c1[N+](=O)[O-]` ?
Result: inactive

Problem: Hi, sorry to bother you, what did the test record for `CC1=C(C)CC2(SC1)C(=O)c1ccccc1C2=O` ?
Result: inactive

* * *

System: SK-MEL-2
Assay: NCI tumour cell line growth inhibition, 48 h
The source made the active and inactive calls. No stated cut-off is given here; in the data, active = GI50 up to about 1.1 µM and inactive = higher.
Response enum: true (1) = active, false (0) = inactive

Observe how each entry below is paired with its result.
COc1ccccc1-c1cc(O)c2cc3c(cc2n1)OCO3 | false (0)
Cc1ccc(/C=C2\NC(=S)N(CN3CCCCC3)C2=O)cc1 | false (0)
CC1(C)Oc2ccc3c(=O)c4ccccc4oc3c2C1C(=O)O (centres undefined) | false (0)
CC(=O)OC1(C)C=CC(=O)C=C1 | false (0)
O=C1/C(=C\c2cccc(Oc3ccccc3)c2)SC(c2ccccc2)N1c1ccccc1Cl (centres undefined) | false (0)

Problem: Hi, sorry to bother you, what did the test record for `N#CC1=C(O)NC(O)=C(C#N)C1c1c(Cl)cccc1Cl` ?
Result: false (0)

* * *

Recorded measurements of GI50, one per entry
System: MDA-N
Assay: NCI tumour cell line growth inhibition, 48 h
The source made the active and inactive calls. No stated cut-off is given here; in the data, active = GI50 up to about 1.1 µM and inactive = higher.

Consider the reported GI50 for these compounds:
COc1c(-c2nc3ccc(N4CCN(C)CC4)nc3[nH]2)cc(OC)c2[nH]c(COC(C)=O)nc12 | 24.7 µM (inactive)
O=C(NCCCl)NCc1ccccc1 | > 100 µM (inactive)
CC(=O)NC1=CC(=O)c2cc(C)cc(O)c2C1=O | 1.53 µM (inactive)
CC(C)(C)OC(=O)C1CC[C@@H](CC(=O)Oc2ccc([N+](=O)[O-])cc2)N1 (stereo not given in full) | > 100 µM (inactive)
CC(C)(C)C1CC[C@H](O)[C@H]([C@@H](O)CC2CC(=O)N(c3ccccc3)C(=O)C2)C1 (stereo not given in full) | > 100 µM (inactive)

Problem: Report the value of GI50 obtained on MDA-N for `CCC(=O)NC(NNS(=O)(=O)c1ccc(C)cc1)(C(F)(F)F)C(F)(F)F` .
Result: 18.5 µM (inactive)

Problem: Report the value of GI50 obtained on MDA-N for O=C1CCC2c3ccccc3NCN12 (stereo not given) .
Result: > 100 µM (inactive)

Problem: Report the value of GI50 obtained on MDA-N for `O=S(=O)(N/C(=N\O)Nc1ccc(Cl)cc1)c1cc(C(F)(F)F)cc(C(F)(F)F)c1` .
Result: 21 µM (inactive)

Problem: Report the value of GI50 obtained on MDA-N for OCC(O)C(O)C(O)C(O)c1nc2cc(Cl)ccc2[nH]1 (stereo not given) .
Result: > 100 µM (inactive)

Problem: Report the value of GI50 obtained on MDA-N for Cc1ccc(NC(=O)/C(=N/N(C)C)C(C2OC(=O)c3ccccc32)[N+](=O)[O-])cc1 (stereo not given) .
Result: > 100 µM (inactive)

* * *

System: MDA-MB-231
Test: NCI tumour cell line growth inhibition, 48 h
Activity calls are given as the source filed them. Rule as the data show it: active = GI50 up to about 1.1 µM and inactive = higher.
Response enum: y for active, n for inactive

Observe how each entry below is paired with its result.
CC(NNC(=O)CC(=O)N(C(=O)c1ccccc1)c1ccc(Cl)cc1)c1cc2ccccc2oc1=O (stereo unspecified) | n
CCCNC(=O)Nc1ccc2c(c1)Cc1cc(N(CCCl)CCCl)ccc1-2 | n

Problem: Hi, sorry to bother you, what did the test record for `CCOCC(=O)N[C@H]1CCc2cc(OC)c(OC)c(OC)c2-c2ccc(SC)c(=O)cc21` ?
Result: y

Problem: Hi, sorry to bother you, what did the test record for `CN1C/C(=C\c2ccc(Cl)cc2)C(=O)/C(=C/c2ccc(Cl)cc2)C1` ?
Result: y

Problem: Hi, sorry to bother you, what did the test record for `O=C1C=C(Sc2ccccc2)c2nccc3c2c1nc1ccccc13` ?
Result: n

* * *

System: SK-OV-3
Experiment: NCI tumour cell line growth inhibition, 48 h
Calls of active or inactive are those of the source. No stated cut-off is given here; in the data, active = GI50 up to about 1.1 µM and inactive = higher.
Recorded measurements of GI50, one per entry

Consider the reported GI50 for these molecules:
CCOc1ccc(/N=C/c2ccc3ccccc3n2)cc1 | > 100 µM (inactive)
CCN(CC)C(=O)N[C@@H](Cc1ccccc1)C(=O)NC | > 100 µM (inactive)
COc1cccc(C=C(C#N)C#N)c1OC | 12.3 µM (inactive)
Cc1ccc2c(c1)CC1(Cc3cc(C)ccc3C1=O)C2=O | > 100 µM (inactive)
CCCCCCCCCCCC(=O)c1c(O)cc(C)oc1=O | 64.6 µM (inactive)
O=[PH](O)c1cccnc1 | > 100 µM (inactive)

Problem: Read off the recorded GI50 for `O=S(O)CCCCSSCCCCSSCCCCS(=O)O`
Result: > 100 µM (inactive)
